Entry source: patent US20190048052A1

- experimental.details: MTS cytotoxicity assay
- Type: cell-based
- cond: human, HEK293 cells
Residues, ends and D or L forms follow the SMILES beside them.
outcome.measure: CC50 at 1 hour (µM)
One number for each entry, in µM.

# example entries with known answers
compound="CC[C@H](C)[C@H](NC(=O)[C@H](CCCCN)NC(=O)[C@H](CCCCN)NC(=O)[C@H](CC(C)C)NC(=O)[C@H](Cc1c[nH]c2ccccc12)NC(=O)[C@H](Cc1c[nH]c2ccccc12)NC(=O)[C@@H](N)Cc1c[nH]c2ccccc12)C(=O)N[C@@H](Cc1c[nH]c2ccccc12)C(N)=O [TetraF2W-KK, WWWLKKIW] (H-WWWLKKIW-NH2; N-terminus and C-terminus assumed)" measured_value=50
compound="CC[C@H](C)[C@H](NC(=O)[C@H](CCCNC(=N)N)NC(=O)[C@H](CCCCN)NC(=O)[C@H](CC(C)C)NC(=O)[C@H](Cc1c[nH]c2ccccc12)NC(=O)[C@H](Cc1c[nH]c2ccccc12)NC(=O)[C@@H](N)Cc1c[nH]c2ccccc12)C(=O)N[C@@H](Cc1c[nH]c2ccccc12)C(N)=O [TetraF2W-KR, WWWLKRIW] (H-WWWLKRIW-NH2; N-terminus and C-terminus assumed)" measured_value=55
compound="CC[C@H](C)[C@H](NC(=O)[C@H](CCCCN)NC(=O)[C@H](CCCNC(=N)N)NC(=O)[C@H](CC(C)C)NC(=O)[C@H](Cc1c[nH]c2ccccc12)NC(=O)[C@H](Cc1c[nH]c2ccccc12)NC(=O)[C@@H](N)Cc1c[nH]c2ccccc12)C(=O)N[C@@H](Cc1c[nH]c2ccccc12)C(N)=O [TetraF2W-RK, WWWLRKIW] (H-WWWLRKIW-NH2; N-terminus assumed)" measured_value=60

Continue with the next compound.
Qu. What value of CC50 at 1 hour has been reported for the following compound? CC[C@H](C)[C@H](NC(=O)[C@H](CCCNC(=N)N)NC(=O)[C@H](CCCNC(=N)N)NC(=O)[C@H](CC(C)C)NC(=O)[C@H](Cc1c[nH]c2ccccc12)NC(=O)[C@H](Cc1c[nH]c2ccccc12)NC(=O)[C@@H](N)Cc1c[nH]c2ccccc12)C(=O)N[C@@H](Cc1c[nH]c2ccccc12)C(N)=O [TetraF2W-RR, WWWLRRIW] (H-WWWLRRIW-NH2; N-terminus assumed)
Ans. 70

----------
- experimental.details: MTS cytotoxicity assay
- Format: cell-based
- cond: human, HeLa CCL-2 cells
Residues, ends and D or L forms follow the SMILES beside them.
outcome.measure: CC50 at 1 hour (µM)
Numbers only, in µM.

Qu. // query CC50 at 1 hour value for entry CC[C@H](C)[C@H](NC(=O)[C@H](CCCNC(=N)N)NC(=O)[C@H](CCCCN)NC(=O)[C@H](CC(C)C)NC(=O)[C@H](Cc1c[nH]c2ccccc12)NC(=O)[C@H](Cc1c[nH]c2ccccc12)NC(=O)[C@@H](N)Cc1c[nH]c2ccccc12)C(=O)N[C@@H](Cc1c[nH]c2ccccc12)C(N)=O [TetraF2W-KR, WWWLKRIW] (H-WWWLKRIW-NH2; N-terminus and C-terminus assumed)
Ans. 100

----------
- experimental.details: Hemolytic assay
- Format: cell-based
- cond: pig, red blood cells; hemolysis; read-out: LC50 Porcine RBCs
Residues, ends and D or L forms follow the SMILES beside them.
outcome.measure: HC50 at 1 hour
Just so you know, I need the unit written after the number.

compound="CC[C@H](C)[C@H](NC(=O)[C@H](CCCCN)NC(=O)[C@H](CCCNC(=N)N)NC(=O)[C@H](CC(C)C)NC(=O)[C@H](Cc1c[nH]c2ccccc12)NC(=O)[C@H](Cc1c[nH]c2ccccc12)NC(=O)[C@@H](N)Cc1c[nH]c2ccccc12)C(=O)N[C@@H](Cc1c[nH]c2ccccc12)C(N)=O [TetraF2W-RK, WWWLRKIW] (H-WWWLRKIW-NH2; N-terminus assumed)" outcome_measure="HC50 at 1 hour" measured_value="40 µM"

Proceeding to the next compound to report its HC50 at 1 hour.
Qu. Value lookup for HC50 at 1 hour; key = CC[C@H](C)[C@H](NC(=O)[C@H](CCCNC(=N)N)NC(=O)[C@H](CCCNC(=N)N)NC(=O)[C@H](CC(C)C)NC(=O)[C@H](Cc1c[nH]c2ccccc12)NC(=O)[C@H](Cc1c[nH]c2ccccc12)NC(=O)[C@@H](N)Cc1c[nH]c2ccccc12)C(=O)N[C@@H](Cc1c[nH]c2ccccc12)C(N)=O [TetraF2W-RR, WWWLRRIW] (H-WWWLRRIW-NH2; N-terminus assumed)
Ans. 40 µM
